B1: library; numbered along this chain (parent)
chain: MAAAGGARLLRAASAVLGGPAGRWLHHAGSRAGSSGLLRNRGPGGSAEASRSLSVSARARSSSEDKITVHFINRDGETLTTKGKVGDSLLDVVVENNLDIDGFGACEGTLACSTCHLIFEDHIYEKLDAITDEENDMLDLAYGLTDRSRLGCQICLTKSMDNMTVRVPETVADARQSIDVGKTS

Variants of: B1
assayName: scaled log2 fold change in cell abundance, elesclomol vs control (0 = silent mean, 1 = nonsense mean) (scaled log2 ratio); higher = higher viability under elesclomol (loss of FDX1 cuproptosis function);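 also: variant abundance is its share of total variant reads in each endpoint sample, from next-generation sequencing of the integrated ORF PCR-amplified out of genomic DNA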
conditionsUsed: with ABC1 FDX1 KO; elesclomol 5 nM; glucose 10 mM; 14 days
Please map values of scaled log2 fold change to classes as shown: label 0: < -0.2; label 1: ≥ -0.2 and < 0.4; label 2: ≥ 0.4

| variantSpec | assignedClass |
| --- | --- |
| V92Q | label 0 |
| E169S | label 0 |
| T109C | label 0 |
| G104I | label 2 |
| I123R | label 0 |
| E64M | label 1 |
| V171C | label 1 |
| T183S | label 1 |
| H26E | label 1 |
| G45Y | label 1 |
| V167I | label 0 |
| V92K | label 2 |
| G18C | label 1 |
| I130D | label 2 |
| L127V | label 1 |
| L89Q | label 2 |
| T183F | label 1 |
| K126S | label 0 |
| G108E | label 2 |
| A47P | label 2 |
| A129E | label 0 |

Numbers sourced from the supplement of paper PMC12855868.
